Test system: ganglionic-type neuronal nicotinic receptors (rat pheochromocytoma clonal line PC12)
Format: cell-based
conditions: rat ganglia, PC12, 86Rb+ efflux, 4 minutes at 20° C.; read-out: RAT GANGLIA EC50 (concentration resulting in half maximal activation of specific ion flux)
quantity: EC50
Don't forget the unit after the value.

CC(=O)OCC1CC2CCN1CC2.[O-][Cl+3]([O-])([O-])O (racemic)
50 µM

Record summary for O=C(O)/C=C/C(=O)O.O=C(O)/C=C/C(=O)O.c1cncc(C2CC3CCN2CC3)c1 (racemic) [Sample No. 1, difumarate] : reported EC50 = 2 µM

###

study system: muscle-like nicotinic receptors (human clonal line TE671/RD) (Homo sapiens, UniProt P02708+P07510+Q07001)
Construct: these cells express muscle-like nicotinic receptors; endogenous in cells; host or cells: TE671/RD (human embryonal rhabdomyosarcoma line)
Sequence (P07510 23-517): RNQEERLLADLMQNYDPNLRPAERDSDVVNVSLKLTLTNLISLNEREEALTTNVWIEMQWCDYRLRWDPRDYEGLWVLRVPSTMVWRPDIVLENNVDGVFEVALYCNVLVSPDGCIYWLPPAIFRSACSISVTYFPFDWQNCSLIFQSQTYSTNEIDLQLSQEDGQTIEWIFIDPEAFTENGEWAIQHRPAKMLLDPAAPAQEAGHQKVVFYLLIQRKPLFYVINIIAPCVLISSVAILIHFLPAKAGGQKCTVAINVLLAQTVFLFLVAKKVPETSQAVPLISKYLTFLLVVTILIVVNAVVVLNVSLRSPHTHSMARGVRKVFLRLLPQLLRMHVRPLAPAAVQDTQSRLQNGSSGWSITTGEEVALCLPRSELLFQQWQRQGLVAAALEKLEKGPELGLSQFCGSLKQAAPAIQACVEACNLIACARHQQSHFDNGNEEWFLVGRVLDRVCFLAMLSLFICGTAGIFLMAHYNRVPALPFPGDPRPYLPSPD
Sequence (P02708 21-457): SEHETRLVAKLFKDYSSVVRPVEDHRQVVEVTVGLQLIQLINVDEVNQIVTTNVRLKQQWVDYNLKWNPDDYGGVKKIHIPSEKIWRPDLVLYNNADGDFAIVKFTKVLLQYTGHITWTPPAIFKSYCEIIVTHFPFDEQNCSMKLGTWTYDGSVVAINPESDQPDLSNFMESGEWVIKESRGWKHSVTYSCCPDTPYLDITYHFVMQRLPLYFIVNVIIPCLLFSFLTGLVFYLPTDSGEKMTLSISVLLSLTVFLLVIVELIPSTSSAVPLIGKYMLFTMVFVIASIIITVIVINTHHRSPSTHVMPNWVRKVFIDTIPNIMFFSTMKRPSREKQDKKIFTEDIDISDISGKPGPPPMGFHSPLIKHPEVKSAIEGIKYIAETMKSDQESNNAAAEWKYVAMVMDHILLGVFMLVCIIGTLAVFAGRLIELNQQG
Sequence (Q07001 22-517): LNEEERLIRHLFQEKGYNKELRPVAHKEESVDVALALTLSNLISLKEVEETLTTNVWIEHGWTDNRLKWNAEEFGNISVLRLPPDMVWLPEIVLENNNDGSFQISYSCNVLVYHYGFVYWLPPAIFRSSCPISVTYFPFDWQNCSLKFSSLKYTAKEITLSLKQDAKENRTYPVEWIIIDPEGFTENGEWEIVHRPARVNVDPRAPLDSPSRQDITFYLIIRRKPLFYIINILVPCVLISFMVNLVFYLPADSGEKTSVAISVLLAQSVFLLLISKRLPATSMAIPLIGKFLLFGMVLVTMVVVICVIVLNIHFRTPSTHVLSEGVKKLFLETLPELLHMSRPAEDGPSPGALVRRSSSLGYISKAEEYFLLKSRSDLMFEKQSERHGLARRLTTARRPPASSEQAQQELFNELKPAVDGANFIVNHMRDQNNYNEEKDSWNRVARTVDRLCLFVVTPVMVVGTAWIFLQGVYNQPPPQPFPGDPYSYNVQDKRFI
assay name: cell-based
Counter-ions that a name gives are not always drawn.
quantity: EC50

Record summary for c1cncc(C2=NCCCC2)c1 [Sample No. 3, anabaseine dihydrochloride] : reported EC50 = 2000 nM
